- System: cucumber downy mildew (Pseudoperenospora cubensis)
- EXPERIMENT NOTES: Efficacy test on cucumber downy mildew, spray treatment and prevention test (Test Example 7)
- Format: in vivo
- CONDITION DESCRIPTION: single compound 250 ppm; lesion area ratio
OBSERVABLE: Preventive value

Worked cases, Preventive value given:
COMPOUND: CC(C)O/N=C(/CNC(=O)c1ccccc1C(F)(F)F)c1ncc(Cl)cc1Cl [Compound No. 4]
Preventive value: 0
--
COMPOUND: CC#Cc1cnc(C(CNC(=O)c2cn(C)nc2C(F)F)=NOC(C)(C)C)c(Cl)c1 [compound 34]
Preventive value: 5
--
COMPOUND: CC#Cc1cnc(C(CNC(=O)c2ccccc2C(F)(F)F)=NOC(C)C)c(Cl)c1 [compound 18]
Preventive value: 0

Entry under review: CON=C(CNC(=O)c1cccnc1Cl)c1ncc(C#CC(C)(C)C)cc1Cl [compound 35] . Reported Preventive value? 0

Entry under review: COc1c(Cl)cnc(C(CNC(=O)c2ccccc2C(F)(F)F)=NOC(C)C)c1Cl [Compound No. 9] . Reported Preventive value? 0

====

- Test system: rice sheath blight fungus (Rhizoctonia solani)
- EXPERIMENT NOTES: Efficacy test on rice sheath blight, spray treatment and prevention test (Test Examples 5-6)
- Assay type: in vivo
- CONDITION DESCRIPTION: Test Example 6; single compound 250 ppm; lesion height
# Preventive value values compiled below
Output spec: single numeric token, no unit.

Worked cases, Preventive value given:
COMPOUND: CC(C)O/N=C(/CNC(=O)c1cn(C)nc1C(F)F)c1ncc(C#CC2CC2)cc1Cl
MEASUREMENT: 8
//
COMPOUND: CON=C(CNC(=O)c1cccnc1Cl)c1ncc(C#CC(C)(C)C)cc1Cl
MEASUREMENT: 5

Give the reported Preventive value for O=C(NCC(=NOCC(F)(F)F)c1ncc(Cl)cc1Cl)c1ccccc1C(F)(F)F (system: rice sheath blight fungus (Rhizoctonia solani)). 4

Give the reported Preventive value for CC#Cc1cnc(C(CNC(=O)c2cn(C)nc2C(F)F)=NOC(C)(C)C)c(Cl)c1 (system: rice sheath blight fungus (Rhizoctonia solani)). 5

Give the reported Preventive value for CC(C)ON=C(CNC(=O)c1ccccc1C(F)(F)F)c1ncc(Cl)c(S(C)(=O)=O)c1Cl (system: rice sheath blight fungus (Rhizoctonia solani)). 6

Give the reported Preventive value for COc1c(Cl)cnc(C(CNC(=O)c2ccccc2C(F)(F)F)=NOC(C)C)c1Cl (system: rice sheath blight fungus (Rhizoctonia solani)). 10

Give the reported Preventive value for CCC(C)ON=C(CNC(=O)c1cn(C)nc1C(F)F)c1ncc(C#CC2CC2)cc1Cl (mixture of isomers) (system: rice sheath blight fungus (Rhizoctonia solani)). 8

====

# Preventive value values compiled below
- Test system: cucumber gray mold fungus (Botrytis cinerea)
- EXPERIMENT NOTES: Preventive test against gray mold on cucumber cotyledon leaves, spray treatment, preventive value and Colby expected value (Test Examples 1-4)
- Assay type: in vivo
- CONDITION DESCRIPTION: Test Example 3; single compound, 3 ppm spray
Output spec: single numeric token, no unit.

Worked cases, Preventive value given:
COMPOUND: CCC(C)ON=C(CNC(=O)c1cn(C)nc1C(F)F)c1ncc(C#CC2CC2)cc1Cl (mixture of isomers) [Compound No. 27]
EXPERIMENTAL SYSTEM: cucumber gray mold fungus (Botrytis cinerea)
OBSERVABLE: Preventive value
MEASUREMENT: 55
//
COMPOUND: CC(C)O/N=C(/CNC(=O)c1ccccc1C(F)(F)F)c1ncc(Cl)cc1Cl [Compound No. 4]
EXPERIMENTAL SYSTEM: cucumber gray mold fungus (Botrytis cinerea)
OBSERVABLE: Preventive value
MEASUREMENT: 70
//
COMPOUND: CC#Cc1cnc(C(CNC(=O)c2ccccc2C(F)(F)F)=NOC(C)C)c(Cl)c1 [compound 18]
EXPERIMENTAL SYSTEM: cucumber gray mold fungus (Botrytis cinerea)
OBSERVABLE: Preventive value
MEASUREMENT: 85

Entry under review: CON=C(CNC(=O)c1cccnc1Cl)c1ncc(C#CC(C)(C)C)cc1Cl [compound 35] . Reported Preventive value? 90

====

- Tested on: wheat glume blotch (Leptosphaeria nodorum)
- EXPERIMENT NOTES: Efficacy test on wheat glume blotch, spray treatment and prevention test (Test Example 8)
- Assay type: in vivo
- CONDITION DESCRIPTION: single compound 3 ppm; spray; lesion area ratio
- Method: An agent comprising the following compound listed in Table 2 (active ingredient A) and the following compound listed in Table 6, Table 11 or Table 15 (active ingredient B) as active ingredients, was prepared in accordance with the above Formulation Example. […] After placing the pot in a glass greenhouse for 7 days, the ratio of the formed lesion area occupying the inoculated leaves was measured, and the preventive value was calculated in accordance with the following formula. […]
# if measured Preventive value < 60: true (1)  # else: false (0)

Worked cases, answers included:
COMPOUND: CC#Cc1cnc(C(CNC(=O)c2cn(C)nc2C(F)F)=NOC(C)(C)C)c(Cl)c1 [compound 34]
LABEL CLASS: false (0)
//
COMPOUND: CC#Cc1cnc(C(CNC(=O)c2ccccc2C(F)(F)F)=NOC(C)C)c(Cl)c1 [compound 18]
LABEL CLASS: true (1)
//
COMPOUND: CC(C)ON=C(CNC(=O)c1ccccc1C(F)(F)F)c1ncc(C(F)(F)F)cc1Cl [compound 14]
LABEL CLASS: false (0)
//
COMPOUND: CON=C(CNC(=O)c1cccnc1Cl)c1ncc(C#CC(C)(C)C)cc1Cl [compound 35]
LABEL CLASS: true (1)
//
COMPOUND: CON=C(CNC(=O)c1ccccc1C(F)(F)F)c1ncc(C#CC2CC2)cc1Cl [compound 36]
LABEL CLASS: true (1)

Now for a further compound.
Is Preventive value of O=C(NCC(=NOCC(F)(F)F)c1ncc(Cl)cc1Cl)c1ccccc1C(F)(F)F [compound 33] strictly below 60? true (1)

====

- Test system: cucumber gray mold fungus (Botrytis cinerea)
- EXPERIMENT NOTES: Preventive test against gray mold on cucumber cotyledon leaves, spray treatment, preventive value and Colby expected value (Test Examples 1-4)
- Format: in vivo
- CONDITION DESCRIPTION: Test Example 4; single compound, 3 ppm spray
OBSERVABLE: Preventive value
Output spec: single numeric token, no unit.

Worked cases, Preventive value given:
COMPOUND: CON=C(CNC(=O)c1cccnc1Cl)c1ncc(C#CC(C)(C)C)cc1Cl
EXPERIMENTAL SYSTEM: cucumber gray mold fungus (Botrytis cinerea)
MEASUREMENT: 88
--
COMPOUND: O=C(NCC(=NOCC(F)(F)F)c1ncc(Cl)cc1Cl)c1ccccc1C(F)(F)F
EXPERIMENTAL SYSTEM: cucumber gray mold fungus (Botrytis cinerea)
MEASUREMENT: 50
--
COMPOUND: CC#Cc1cnc(C(CNC(=O)c2ccccc2C(F)(F)F)=NOC(C)C)c(Cl)c1
EXPERIMENTAL SYSTEM: cucumber gray mold fungus (Botrytis cinerea)
MEASUREMENT: 75
--
COMPOUND: CC(C)ON=C(CNC(=O)c1ccccc1C(F)(F)F)c1ncc(C(F)(F)F)cc1Cl
EXPERIMENTAL SYSTEM: cucumber gray mold fungus (Botrytis cinerea)
MEASUREMENT: 65
--
COMPOUND: CON=C(CNC(=O)c1cn(C)nc1C(F)F)c1ncc(C#CC(C)(C)C)cc1Cl
EXPERIMENTAL SYSTEM: cucumber gray mold fungus (Botrytis cinerea)
MEASUREMENT: 75
--
COMPOUND: CC(C)O/N=C(/CNC(=O)c1ccccc1C(F)(F)F)c1ncc(Cl)cc1Cl
EXPERIMENTAL SYSTEM: cucumber gray mold fungus (Botrytis cinerea)
MEASUREMENT: 60

Entry under review: CON=C(CNC(=O)c1ccccc1C(F)(F)F)c1ncc(C#CC2CC2)cc1Cl . Reported Preventive value? 80

Entry under review: CCC(C)ON=C(CNC(=O)c1cn(C)nc1C(F)F)c1ncc(C#CC2CC2)cc1Cl (mixture of isomers) . Reported Preventive value? 45

====

- System: cucumber gray mold fungus (Botrytis cinerea)
- EXPERIMENT NOTES: Preventive test against gray mold on cucumber cotyledon leaves, spray treatment, preventive value and Colby expected value (Test Examples 1-4)
- Type: in vivo
- CONDITION DESCRIPTION: Test Example 1; single compound, 3 ppm spray
- Description: Using the following compound listed in Table 2 (the active ingredient A) and the compound listed in Table 5 through Table 15 (active ingredient B), an agent was prepared in accordance with the above Formulation Example. […] After the inoculation, the plastic container was sealed and left at 20° C. for 3 days, the ratio of the formed lesion occupying the inoculated leaf was measured, and the preventive value was calculated in accordance with the following calculation formula. […]
# Preventive value values compiled below
Output spec: single numeric token, no unit.

Worked cases, Preventive value given:
COMPOUND: CC(C)ON=C(CNC(=O)c1ccccc1C(F)(F)F)c1ncc(C(F)(F)F)cc1Cl
Preventive value: 75

COMPOUND: CO/C=C(/C(=O)OC)c1ccccc1Oc1cc(Oc2ccccc2C#N)ncn1 [Compound No. C18, azoxystrobin, reference compound]
Preventive value: 30

COMPOUND: CON=C(CNC(=O)c1cccnc1Cl)c1ncc(C#CC(C)(C)C)cc1Cl
Preventive value: 88

COMPOUND: CON=C(CNC(=O)c1ccccc1C(F)(F)F)c1ncc(C#CC2CC2)cc1Cl
Preventive value: 75

COMPOUND: CON=C(CNC(=O)c1cn(C)nc1C(F)F)c1ncc(C#CC(C)(C)C)cc1Cl
Preventive value: 75

COMPOUND: CC(C)O/N=C(/CNC(=O)c1ccccc1C(F)(F)F)c1ncc(Cl)cc1Cl
Preventive value: 75

Continue with the compound presented below.
Give the reported Preventive value for CC#Cc1cnc(C(CNC(=O)c2ccccc2C(F)(F)F)=NOC(C)C)c(Cl)c1 (system: cucumber gray mold fungus (Botrytis cinerea)). 88
